Biological target: T1, cyno FcRn/b2M (cyno, UniProt Q8SPV9 24-297; Q8SPW0 21-119, biotinylated)
T1 construct: bought recombinant biotinylated protein (Immunitrack ITF05 or ACRO FCM-C82W5); also called cFcRn; cFcRn/cb2M
T1 sequence (Q8SPV9 24-297 limits assumed, chain 1 of 2): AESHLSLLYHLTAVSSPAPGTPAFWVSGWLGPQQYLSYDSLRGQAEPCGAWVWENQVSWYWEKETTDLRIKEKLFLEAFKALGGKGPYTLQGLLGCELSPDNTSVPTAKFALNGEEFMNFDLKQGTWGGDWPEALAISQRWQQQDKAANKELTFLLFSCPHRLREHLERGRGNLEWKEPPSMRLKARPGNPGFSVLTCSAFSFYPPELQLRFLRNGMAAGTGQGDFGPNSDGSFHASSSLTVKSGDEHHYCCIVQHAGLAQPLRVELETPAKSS
T1 sequence (Q8SPW0 21-119 limits assumed, chain 2 of 2): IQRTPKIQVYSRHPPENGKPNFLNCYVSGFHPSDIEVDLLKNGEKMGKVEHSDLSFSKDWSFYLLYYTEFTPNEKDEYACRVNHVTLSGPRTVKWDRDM
Assay: SPR off-rate; pH 7.4 vs pH 6.0;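 also: surface plasmon resonance with diluted periplasmic extracts flowed over ligand surfaces, 120 s association and 600–3600 s dissociation at 25 °C, running buffer containing 150 mM NaCl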
ENDPOINT: kd ratio pH 7.4/6.0
The reply should be a number, written without any unit.

{"BINDER": "T0263018B11 F29Y (VHH, name in Kabat numbering, FLAG3-His6 tagged) VHH: EVQLVESGGGVVQPGGSLRLSCAASGFTYSSYAMYWVRQAPGKGLEWVSAISSGGGSTDYADSVKGRFTISRDNSKNTLYLQMNSLRPEDTALYYCAADTLYTSLTWYSYWGQGTLVTVSS", "ENDPOINT": "kd ratio pH 7.4/6.0", "READOUT_NUMBER": 45}

Below: the item to evaluate.
So what's the measured kd ratio pH 7.4/6.0 for this one? T0263018B11 S52aY (VHH, name in Kabat numbering, FLAG3-His6 tagged) VHH: EVQLVESGGGVVQPGGSLRLSCAASGFTFSSYAMYWVRQAPGKGLEWVSAISYGGGSTDYADSVKGRFTISRDNSKNTLYLQMNSLRPEDTALYYCAADTLYTSLTWYSYWGQGTLVTVSS
44
